Attribution: paper PMC10447463

Assay type: physicochemical
Conditions: Fig S10 panel D
metric: Tht category (> 2 to blank = +)

Sample records with Tht category (> 2 to blank = +):
> print(dat)
          substance                           metric                          testvalue
1  HHHHKIKIQINMYYYY  Tht category (> 2 to blank = +)  1 (ThT. Cat is 1, if Rel. ThT >2)
2           KFKFQFF  Tht category (> 2 to blank = +)  1 (ThT. Cat is 1, if Rel. ThT >2)
3        EIEIQINMWQ  Tht category (> 2 to blank = +)  1 (ThT. Cat is 1, if Rel. ThT >2)
4          KIKIQINM  Tht category (> 2 to blank = +)       0 (ThT-inactive (N-Fold <2))
5           CQFQFQF  Tht category (> 2 to blank = +)  1 (ThT. Cat is 1, if Rel. ThT >2)

Query: State its Tht category (> 2 to blank = +) for this substance: CKIKQII
Result: 1 (ThT. Cat is 1, if Rel. ThT >2)

Query: State its Tht category (> 2 to blank = +) for this substance: CKFKFQFNM
Result: 1 (ThT. Cat is 1, if Rel. ThT >2)

Query: State its Tht category (> 2 to blank = +) for this substance: KIKIQII
Result: 0 (ThT-inactive (N-Fold <2))
